TESTED SYSTEM: HLA-B*38:01
TEST SUMMARY: IEDB peptide-MHC binding, purified MHC/competitive/radioactivity; bounds were set here for any values at or beyond the usual limits of such assays
SETUP CONDITIONS: source organism: Vaccinia virus

{"columns": ["SEQUENCE INPUT", "IC50"],
 "data": [
  ["IHIPGDTLF", "11 nM"]
]}

###

TESTED SYSTEM: HLA-B*38:01
TEST SUMMARY: IEDB peptide-MHC binding, purified MHC/competitive/radioactivity; bounds were set here for any values at or beyond the usual limits of such assays
SETUP CONDITIONS: source organism: Human immunodeficiency virus 1
pIC50: −log10 of the molar value.

{"columns": ["SEQUENCE INPUT", "pIC50"],
 "data": [
  ["GHQAAMQML", 5.99],
  ["KRHKEFALF", 5.96],
  ["KTQKEYALF", 4.39],
  ["MHEDIISLW", 7.28],
  ["KMQKEHALF", 4.92],
  ["WHLGQGVSI", 8.00]
]}

###

Recorded measurements of log10 of IC50, one per entry
TESTED SYSTEM: HLA-B*39:06
TEST SUMMARY: IEDB peptide-MHC binding, purified MHC/competitive/radioactivity; bounds were set here for any values at or beyond the usual limits of such assays
SETUP CONDITIONS: source organism: Mus musculus
QUANTITY NAME: log10 of IC50 (log10 of the value in µM)

{"columns": ["SEQUENCE INPUT", "TESTED SYSTEM", "log10 of IC50"],
 "data": [
  ["TNVFLFLFA", "HLA-B*39:06", 1.84],
  ["IHIDSTPFA", "HLA-B*39:06", 0.34],
  ["MALWMRFLP", "HLA-B*39:06", 1.08],
  ["EHTPGVHMA", "HLA-B*39:06", 0.08],
  ["YRFIKIPTH", "HLA-B*39:06", 0.13]
]}

###

Recorded measurements of IC50, one per entry
TESTED SYSTEM: HLA-B*38:01
TEST SUMMARY: IEDB peptide-MHC binding, purified MHC/competitive/radioactivity; bounds were set here for any values at or beyond the usual limits of such assays
SETUP CONDITIONS: source organism: Simian immunodeficiency virus

{"columns": ["SEQUENCE INPUT", "TESTED SYSTEM", "MEASURE UNIT", "IC50"],
 "data": [
  ["NETWYSADL", "HLA-B*38:01", "nM", 3920],
  ["DHQAAMQII", "HLA-B*38:01", "nM", 125],
  ["WLFSNCRTL", "HLA-B*38:01", "nM", 993],
  ["FRQYTAFTL", "HLA-B*38:01", "nM", 17],
  ["DRFGLAESL", "HLA-B*38:01", "nM", 30],
  ["VPSLQYLAL", "HLA-B*38:01", "nM", 1530],
  ["THTNGVRLL", "HLA-B*38:01", "nM", 617],
  ["NHLPRELIF", "HLA-B*38:01", "nM", 1120],
  ["IHGQANSDL", "HLA-B*38:01", "nM", 2360],
  ["THIQQDPAL", "HLA-B*38:01", "nM", 148]
]}

###

Recorded measurements of IC50, one per entry
TESTED SYSTEM: HLA-B*39:06
TEST SUMMARY: IEDB peptide-MHC binding, purified MHC/competitive/radioactivity; bounds were set here for any values at or beyond the usual limits of such assays
SETUP CONDITIONS: source organism: Homo sapiens
QUANTITY NAME: IC50 (µM)

{"columns": ["SEQUENCE INPUT", "OBSERVED MEASUREMENT"],
 "data": [
  ["YHDIKRITA", 0.017],
  ["ARFTGIKTA", 0.006],
  ["ERMKLVVQA", 0.015],
  ["NRVMLPKAA", 0.0027],
  ["NRYDGIYKV", 0.371],
  ["LQHPFVRSA", 0.0077],
  ["NHINVELSL", 27.9],
  ["YYDEKVVKL", 3.73],
  ["IEHDVVMKA", 0.137],
  ["DHHLPPPAA", 0.072],
  ["TFDVAPSRL", 0.353],
  ["SRYLGKITA", 0.0081],
  ["FRYQGHVGA", 0.0017],
  ["ERFYGKYTA", 0.0092],
  ["GRSIAFHSA", 0.04],
  ["TRYQIPKEV", 0.45],
  ["HRLEGLREA", 0.0096],
  ["THNYGIGAA", 0.015],
  ["TQRLIRESA", 0.011]
]}

###

TESTED SYSTEM: HLA-B*39:06
TEST SUMMARY: IEDB peptide-MHC binding, purified MHC/competitive/radioactivity; bounds were set here for any values at or beyond the usual limits of such assays
SETUP CONDITIONS: source organism: Mus musculus
Recorded measurements of IC50, one per entry

{"columns": ["SEQUENCE INPUT", "IC50"],
 "data": [
  ["EAFEHTPGV", "≥ 77 µM"],
  ["INSEMFLRS", "≥ 77 µM"],
  ["LVAEAFEHT", "≥ 76.1 µM"]
]}

Cited source: the Immune Epitope Database (IEDB)
